# MEASURED_TARGET: Ras farnesyl transferase (Rattus norvegicus, UniProt Q02293+Q04631)
# Construct: endogenous in cells; host or cells: Rat2 fibroblasts transformed with H-Ras or with an H-Ras/K-Ras C-terminus fusion
# PROTOCOL: In vivo (cellular) inhibitory activity for Ras farnesyl transferase, Rat2 cell line transformed with fused protein of H-Ras substituted with polybasic lysine domain at C-terminus of K-Ras
# Format: cell-based
pIC50: −log10 of the molar value.
pIC50 overview

{"columns": ["SMILES_REPR", "pIC50"],
 "data": [
  ["O=C(c1cn(Cc2c[nH]cn2)cc1-c1cccc2ccccc12)c1cccc2ccccc12", "4.00 to 5.00"],
  ["O=C1CCN(C(=O)c2cn(Cc3c[nH]cn3)cc2-c2cccc3ccccc23)CC1", "4.00 to 5.00"],
  ["N#Cc1ccc(Cn2cncc2Cn2ccc(C(=O)c3cccc4ccccc34)c2)cc1", 5.15],
  ["O=C(c1ccn(Cc2cncn2Cc2ccc(Br)cc2)c1)c1cccc2ccccc12", "4.30 to 5.00"],
  ["COCCN(C)C(=O)c1cn(Cc2cncn2Cc2ccc(Br)cc2)cc1C(=O)c1cccc2ccccc12", "4.30 to 5.00"]
]}

====

# MEASURED_TARGET: Ras farnesyl transferase (Rattus norvegicus, UniProt Q02293+Q04631)
# Construct: endogenous in cells; host or cells: Rat2 fibroblasts transformed with H-Ras or with an H-Ras/K-Ras C-terminus fusion
# PROTOCOL: In vivo (cellular) inhibitory activity for Ras farnesyl transferase, Rat2 cell line which expresses C-Harvey-Ras protein
# Format: cell-based
# CONDITION_PARAMETERS: Rat2 cell line expressing C-Harvey-Ras; concentration inhibiting 50% of farnesyl bonding of Ras protein; read-out: H-Ras CIC50
# Method: In the present experiment, Rat2 cell line which expresses C-Harvey-Ras protein having transforming activity and Rat2 cell line (Korean patent application No. 97-14409) which is transformed with fused protein of H-Ras substituted with polybasic lysine domain at C-terminus of K-Ras were used. The experiment was performed by the modified Declue's method (Declue. J. E. et al., Cancer Research, 1991, 51, 712). Hereinafter, the experimental method will be described in more detail. […]
IC50 listing for selected molecules.

{"columns": ["SMILES_REPR", "MEASURED_TARGET", "IC50 / nM"],
 "data": [
  ["COCCN(C)C(=O)c1cn(Cc2cncn2CCc2ccccc2Cl)cc1-c1cccc2ccccc12", "Ras farnesyl transferase (Rattus norvegicus, UniProt Q02293+Q04631)", 23],
  ["CN1CCN(C(=O)c2cn(Cc3cncn3CCc3ccc(O)cc3)cc2-c2cccc3ccccc23)CC1", "Ras farnesyl transferase (Rattus norvegicus, UniProt Q02293+Q04631)", 15]
]}

====

# MEASURED_TARGET: Ras farnesyl transferase (Rattus norvegicus, UniProt Q02293+Q04631)
# Construct: endogenous in cells; host or cells: Rat2 fibroblasts transformed with H-Ras or with an H-Ras/K-Ras C-terminus fusion
# PROTOCOL: In vivo (cellular) inhibitory activity for Ras farnesyl transferase, Rat2 cell line which expresses C-Harvey-Ras protein
# Assay type: cell-based
# CONDITION_PARAMETERS: Rat2 cell line expressing C-Harvey-Ras; concentration inhibiting 50% of farnesyl bonding of Ras protein; read-out: H-Ras CIC50
Measured IC50 values are reported for all entries that follow.

{"columns": ["SMILES_REPR", "IC50"],
 "data": [
  ["O=C(c1cn(CCn2ccnc2)cc1-c1cccc2ccccc12)N1CCOCC1", "1000 to 50000 nM"],
  ["O=C(c1cn(Cc2c[nH]cn2)cc1-c1cccc2ccccc12)N1CCNCC1", "1000 to 50000 nM"],
  ["Cc1ccc(C(=O)c2cn(Cc3c[nH]cn3)cc2-c2cccc3ccccc23)cc1", "1000 to 50000 nM"],
  ["CSCCOc1ccc(C(=O)c2cn(Cc3c[nH]cn3)cc2-c2cccc3ccccc23)cc1", "1000 to 50000 nM"],
  ["COCCN(C)C(=O)c1cn(Cc2cncn2Cc2ccc(C#N)cc2)nc1-c1cccc2ccccc12", "100 nM"],
  ["O=C(c1ccc(Cl)cc1Cl)c1cn(Cc2c[nH]cn2)c(Cc2ccccc2)c1-c1cccc2ccccc12", "1000 to 50000 nM"],
  ["CN1CCN(C(=O)c2cn(Cc3cncn3CCCc3ccccc3)cc2-c2cccc3ccccc23)CC1", "20 nM"],
  ["N#Cc1ccc(Cn2cncc2Cn2cc(C(=O)c3cccc(Br)c3)c(-c3cccc4ccccc34)c2)cc1", "100 to 1000 nM"]
]}

Every entry's value here was drawn from patent US6472526B1.
